system: NCI-H460 lung; test: NCI-60 one-dose screen, 48 h; conditions: 10 µM unless noted
This is part of a sample that, as a whole, favours compounds with a hit. Of some 83,000 tested, about 20% had one in any assay. Calls of active or inactive are those of the source. The calls were made as follows: active = growth percent below 10; inactive = the rest.
Just give me one of these, please: active, inactive

Dear all, I need the recorded test outcome for N=c1c2cc(-c3ccccc3)oc2ncn1/N=C/c1ccccc1 , thank you. inactive

Same read-out for CS(=O)c1nccc(-c2c(-c3ccc(F)c(OCCc4ccccc4)c3)nc3sccn23)n1 (stereo unspecified) ? inactive

Then this compound: O=C(Nc1cc(Cl)cc(Cl)c1)Nc1nc2ccc([N+](=O)[O-])cc2s1 active

And then CCCCCCNC(=O)Oc1ccc(/C(=C(\C)c2ccc(Cl)cc2)c2ccc(OCCN(C)C)cc2)cc1 , what is it? active

Now consider O=C1NC(=O)/C(=C/c2ccc(OCc3cc4ccccc4nc3Cl)cc2)S1 . inactive

Try this compound next: C/C=C/C=C1\C[C@H]2CO[C@H](O2)C1=O inactive

###

test system: CAKI-1 renal; experiment: NCI-60 one-dose screen, 48 h; conditions: 10 µM
Compounds without any hit were thinned out: in the full panel of roughly 83,000, 20% have a hit. Active and inactive are the calls of the source. The calls were made as follows: active = growth percent below 10; inactive = the rest.
Can you answer with just one of these options? T = active, F = inactive

Recorded test call requested for Oc1ccc(CSc2nnc(-c3ccc(Br)cc3)o2)c2cccnc12 F

Now give it for N=c1c2cc(-c3ccccc3)oc2ncn1/N=C/c1ccccc1 too. F

What do you get for CCOC(=O)/C(F)=C/C1CC1C1CCCCC1 (configuration not stated) ? F

Param item: NS(=O)(=O)c1ccc(-n2cc(CC=O)nn2)cc1 F

Queued: CS(=O)(=O)c1nccc(-c2c(-c3ccc(F)c(OCCc4ccccc4)c3)nc3sccn23)n1 F

Can you handle O=c1cc(-c2ccccc2)nc2sc(-c3c[nH]c4ccc(Br)cc34)nn12 next? F

And COc1cc(C(=O)c2cc(C(C)=O)c3c4ccccc4ccn23)cc(OC)c1OC ? F

Same question for COc1cc2cc(Oc3ccc(NC(=O)c4cccc(C(F)(F)F)c4)cc3)c(C)nc2cc1OCCN(C)C please. F

Likewise for Cc1ccc(NC(=O)c2cc(/C=C/C(=O)NO)cc(C(F)(F)F)c2)cc1Nc1nccc(-c2cccnc2)n1 ? T

Note, next up: Oc1ccccc1-c1nnc(SCc2ccc(O)c3ncccc23)o1 F

Note, next up: CCN1C(=O)N(CC)C2SC(N/N=C/c3ccc(OC)cc3)=NC21 (configuration not stated) F

Do the same for C=CCn1c(SCC(=O)c2ccc(OC)cc2)nnc1-c1ccc(OC)cc1 please F

Then CCC(CC)n1c(=O)c(SC2=NC3C(NN2)N(CC)C(=O)N3CC)c(C(=O)O)c2ccccc21 (configuration not stated) ? F

One more compound: O=C(CCCCCCN1CC(=O)N2[C@@H](c3cccc(Br)c3)c3[nH]c4ccccc4c3C[C@H]2C1=O)NO F

Same question for COc1ccccc1N1CCN(C2=NN=C(c3cccc(Cl)c3)c3ccccc3C2)CC1 please. F

// repeat for C=CCn1c(SCC(=O)Nc2ccc(OC)cc2)nnc1-c1ccc(Cl)cc1 and report F

Try COc1ccc(OC)c([C@H]2c3[nH]c4ccccc4c3C[C@H]3C(=O)N(CCCCCCC(=O)NO)CC(=O)N23)c1 next. F

Proceed to Cc1cnc2nc(NN)[nH]n12 F

Entry to check: COc1cc(/C=C/C(=O)c2ccc(NC(=O)CSc3nnc(-c4ccc5nc(-c6ccccc6)[nH]c5c4)o3)cc2)cc(OC)c1OC F

Item: Nc1ccc(-c2nnc(SCc3ccc(O)c4ncccc34)n2-c2ccccc2)cc1 F

Now try O=C(CN1C(=O)CSC1=O)Nc1ccc(C(=O)/C=C/c2cc3ccccc3nc2Cl)cc1 . F

// repeat for O=C(NCCCNc1cc(-c2cn(-c3ccccc3)nc2-c2cccc(O)c2)ccn1)Nc1cccc(C(F)(F)F)c1 and report F

Lookup CC1CCN(S(=O)(=O)c2ncsc2-c2ccccc2)CC1 F

Repeat for the following compound: COc1ccc([C@H]2[C@H](O)C(=O)N2c2cc(OC)c(OC)c(OC)c2)cc1O F

Check C=C(C)[C@@H]1CC[C@]2(C(=O)NCCCN(CCC#N)CCC#N)CC[C@]3(C)[C@H](CC[C@@H]4[C@@]5(C)CCC(=O)C(C)(C)[C@@H]5CC[C@]43C)[C@@H]12 too. F

Same lookup for Cc1ccc(NC(=O)c2cccc(CN3CCN(C)CC3)c2)cc1Oc1ccc(-c2[nH]nc3ncnc(N)c23)cc1 , please. F

Also, Oc1ccc(CSc2nnc(-c3ccncc3)n2-c2ccccc2)c2cccnc12 please. F

Now this one: CN1CCN(c2ccc(C(=O)Nc3cccc(-c4cn(-c5ccc(S(N)(=O)=O)cc5)nn4)c3)cc2C(F)(F)F)CC1 F

Next entry: COc1ccc(-c2nc3cc(Cl)c(Cl)cc3n2CC(=O)N=Nc2c(O)[nH]c3ccc(Cl)cc23)cc1 F

How about C=C(C)C(=O)O[C@H]1C[C@@]2(C)OC(=CC2=O)/C(CO)=C\[C@H]2OC(=O)C(=C)[C@H]12 ? T

# iterate: Cc1cc(-c2ccc3nc(N)sc3c2)nc2ccc3[nH]ncc3c12 F

What about this compound? Oc1ccccc1/C=N/Nc1nc(N/N=C/c2ccccc2O)nc(N2CCOCC2)n1 T

What would you report for NS(=O)(=O)c1ccc(Nc2nc(N/N=C/c3ccc([N+](=O)[O-])cc3)nc(Nc3ccccc3)n2)cc1 ? F

Another: CN1CCN(c2ccc(NC(=O)Nc3ccc4c(ccn4-c4cccc(C(N)=O)n4)c3)cc2C(F)(F)F)CC1 F

Lookup COc1cc2c3c(n(CCCNC4CCC4)c(=O)c2cc1OC)-c1cc2c(cc1C3=O)OCO2 T

Please give the result for O=C1c2c(c3c4cccnc4[nH]c3c3ccc4ccccc4c23)C(=O)N1CCN1CCOCC1 too. F

Also COc1ccc(/C=N/Nc2nc(N/N=C/c3ccc(OC)cc3O)nc(N3CCOCC3)n2)c(O)c1 ? F
